Assignment: determine reported TGI for the given compounds.
Test system: MALME-3M melanoma
Assay: NCI tumour cell line growth inhibition, 48 h
Response body: numeric value in µM, unit text excluded.

Q: Lab note: need TGI with MALME-3M melanoma for entry CC1=C(C)C(=O)OC(C(C)(O)C2(O)CC3OC34C3CC(O)C56OC5C=CC(=O)C6(C)C3CCC42C)C1 (centres undefined) , please look it up.
Ans: 3.53

Q: Reported TGI for MALME-3M melanoma, given C=C1C(=O)OC2CC1C(OC(=O)/C=C/c1ccccc1)C/C(C)=C/CC/C(C)=C/CCC2(C)O (centres undefined) ?
Ans: 4.02

Q: Query TGI on MALME-3M melanoma for CC(=O)CC[N+](C)(C)C
Ans: 24.2

Q: Checklist item: TGI tested on MALME-3M melanoma, entry C(=N\NC1=NCCCCN1)/c1ccc2ccccc2c1 , value?
Ans: 30.4

Q: Record O=C(O)c1cccc([As]=[As]c2cccc(C(=O)O)c2)c1 (centres undefined) : what is its TGI with MALME-3M melanoma?
Ans: 43.9
